Answer each item with its documented IC50.
Target: Gonadotropin-releasing hormone receptor (Homo sapiens, UniProt P30968)
Sequence (P30968 whole entry): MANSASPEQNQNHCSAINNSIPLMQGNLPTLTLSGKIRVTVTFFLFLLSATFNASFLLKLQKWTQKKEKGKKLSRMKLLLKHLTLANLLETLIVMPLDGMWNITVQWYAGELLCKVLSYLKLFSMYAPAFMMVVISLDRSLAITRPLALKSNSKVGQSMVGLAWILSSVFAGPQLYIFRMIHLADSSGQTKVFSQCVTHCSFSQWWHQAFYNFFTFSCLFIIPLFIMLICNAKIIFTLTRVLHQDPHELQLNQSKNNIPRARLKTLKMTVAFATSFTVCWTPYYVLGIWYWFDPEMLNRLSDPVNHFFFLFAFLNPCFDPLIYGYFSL
Experiment: Displacement of [125I]D-Trp6-GnRH from human recombinant GNRH receptor by scintillation counting

Answered examples (8):
[
  {
    "MOLECULE": "CCc1nc(CN2CCN(c3cccc4nc(-c5ccc(C(C)(C)C)cc5)cn34)CC2)c(C)[nH]1",
    "IC50": "> 10000 nM"
  },
  {
    "MOLECULE": "CCn1cnc(CN2CCN(c3cccc4[nH]c(-c5ccc(C(C)(C)C)cc5)nc34)CC2)c1C",
    "IC50": "5.8 nM"
  },
  {
    "MOLECULE": "CCc1nc(C)c(CN2CCN(c3cccc4[nH]c(-c5ccc(C(C)(C)C)cc5)nc34)CC2)[nH]1",
    "IC50": "10 nM"
  },
  {
    "MOLECULE": "CCn1cnc(CN2CCN(c3cccn4cc(-c5ccc(C(C)(C)C)cc5)nc34)CC2)c1C",
    "IC50": "6.7 nM"
  },
  {
    "MOLECULE": "CC(C)(C)c1ccc(-c2cn3cccc(N4CCN(Cc5ccc6nccnc6c5)CC4)c3n2)cc1",
    "IC50": "47 nM"
  },
  {
    "MOLECULE": "CCc1nc(CN2CCN(c3cccc4nc(-c5ccc(C(C)(C)C)cc5)oc34)CC2)c(C)[nH]1",
    "IC50": "> 10000 nM"
  },
  {
    "MOLECULE": "CC(C)(C)c1ccc(-c2cn3cccc(N4CCN(Cc5c[nH]c(=O)[nH]c5=O)CC4)c3n2)cc1",
    "IC50": "4.3 nM"
  },
  {
    "MOLECULE": "CCc1nc(CN2CCN(c3cccn4cc(-c5ccc(C(C)(C)C)cc5)nc34)CC2)c(C)[nH]1",
    "IC50": "9.8 nM"
  }
]

Need IC50 for each of these compounds.
1. CCn1cc(CN2CCN(c3cccn4cc(-c5ccc(C(C)(C)C)cc5)nc34)CC2)c(=O)[nH]c1=O
2. CCc1nc(CN2CCN(c3cccc4nc(-c5ccc(C(C)(C)C)cc5)sc34)CC2)c(C)[nH]1

1: 2.3 nM; 2: > 10000 nM

Need IC50 for each of these compounds.
1. CCc1nc(CN2CCN(c3cncc4[nH]c(-c5ccc(C(C)(C)C)cc5)nc34)CC2)c(C)[nH]1
2. CC(C)(C)c1ccc(-c2cn3cccc(N4CCN(Cc5cnc6ccccc6n5)CC4)c3n2)cc1

1. 58 nM
2. 44 nM
